Origin of values: patent EP0532706B1

# ASSAY SUMMARY: in vivo
# Assay type: in vivo, guinea pig
# CONDITION: guinea pig, in vivo, 2 mg/kg/day
# Method: Blood was drawn by ear puncture from the anesthetized animals and collected into EDTA containing tubes at the beginning, after 10 days, and after 3 weeks, when the animals were sacrificed. Plasma was stored at -80°C until analyzed. Lp(a) was detected in the plasma of the guinea pigs by use of SDS-polyacrylamide gels according to Neville ((1971) J. Biol. Chem. 246:6328-6334) followed by Western blotting according to Beisiegel, et al. ((1982) J. Biol. Chem. 257:13150-13156). […]
REPORTED PROPERTY: concentration at 840 h (ng/mL)
Report as a plain number; the unit ng/mL is understood.

Q. Can you share its concentration at 840 h? I mean this molecule: O=C1O[C@H]([C@@H](O)CO)C(O)=C1O [ascorbate]
A. 3010
